species on record: Rattus norvegicus; test: SafetyScreen: KV (Non-Selective) Rat Potassium Ion Channel [125I] alpha-Dendrotoxin Binding LeadHunter Assay, catalogue number: 166; conditions: Test compound concentration 10.0 uM
Measured quantity: inhibition (%)
Answers are plain numbers, in %.

>  <Structure smiles>
CC(C)[C@H](Nc1ncnc2[nH]c(-c3cnn(C)c3C#N)cc12)c1ccc2c(n1)OCCO2

>  <inhibition, %>
0

$$$$
>  <Structure smiles>
COc1ccc([C@H](Cc2nnn[nH]2)NC(=O)c2ncnc3[nH]ccc23)cc1

>  <inhibition, %>
-1

$$$$
>  <Structure smiles>
Cn1ncc(-c2cc3c(N[C@@H](c4ccc5c(n4)OCCO5)C(C)(C)C)ncnc3[nH]2)c1C#N

>  <inhibition, %>
5

$$$$
>  <Structure smiles>
CC(C)[C@@H](Nc1ncnc2[nH]c(C(=O)N[C@@H]3CCN(C)C3)cc12)c1ccc2c(c1)S(=O)(=O)CCC2

>  <inhibition, %>
2

$$$$
>  <Structure smiles>
CNCc1cc(-c2cc3c(N[C@@H](c4ccc5c(c4)S(=O)(=O)CCC5)C(C)C)ncnc3[nH]2)co1

>  <inhibition, %>
1

$$$$
>  <Structure smiles>
CNC(=O)Cn1cc(-c2cc3c(N[C@@H](c4ccc5c(c4)S(=O)(=O)CCC5)C(C)C)ncnc3[nH]2)cn1

>  <inhibition, %>
-2

$$$$
>  <Structure smiles>
CC(C)[C@H](Nc1ncnc2[nH]ccc12)c1ccc2c(c1)S(=O)(=O)CCC2

>  <inhibition, %>
-10

$$$$
>  <Structure smiles>
Cc1nn(C)cc1-c1cc2c(N[C@H](c3ccc4c(c3)S(=O)(=O)CCC4)C(C)C)ncnc2[nH]1

>  <inhibition, %>
1

$$$$

Hi team, please reply with inhibition for each item in this list.
1. C[C@H](C(=O)O)[C@@H](NC(=O)c1ncnc2[nH]ccc12)c1ccc(Br)cc1
2. CC(C)[C@@H](Nc1ncnc2[nH]c(-c3cnn(C)c3C#N)cc12)c1ccc2c(n1)OCCO2

-- reply
0
2
